Reported values of inhibition for individual entries
- TARGET_SYSTEM: Integrin beta-1 (Homo sapiens) + Integrin alpha-4 (Homo sapiens) (UniProt P13612+P05556)
- Sequence (P05556 whole entry, looked up): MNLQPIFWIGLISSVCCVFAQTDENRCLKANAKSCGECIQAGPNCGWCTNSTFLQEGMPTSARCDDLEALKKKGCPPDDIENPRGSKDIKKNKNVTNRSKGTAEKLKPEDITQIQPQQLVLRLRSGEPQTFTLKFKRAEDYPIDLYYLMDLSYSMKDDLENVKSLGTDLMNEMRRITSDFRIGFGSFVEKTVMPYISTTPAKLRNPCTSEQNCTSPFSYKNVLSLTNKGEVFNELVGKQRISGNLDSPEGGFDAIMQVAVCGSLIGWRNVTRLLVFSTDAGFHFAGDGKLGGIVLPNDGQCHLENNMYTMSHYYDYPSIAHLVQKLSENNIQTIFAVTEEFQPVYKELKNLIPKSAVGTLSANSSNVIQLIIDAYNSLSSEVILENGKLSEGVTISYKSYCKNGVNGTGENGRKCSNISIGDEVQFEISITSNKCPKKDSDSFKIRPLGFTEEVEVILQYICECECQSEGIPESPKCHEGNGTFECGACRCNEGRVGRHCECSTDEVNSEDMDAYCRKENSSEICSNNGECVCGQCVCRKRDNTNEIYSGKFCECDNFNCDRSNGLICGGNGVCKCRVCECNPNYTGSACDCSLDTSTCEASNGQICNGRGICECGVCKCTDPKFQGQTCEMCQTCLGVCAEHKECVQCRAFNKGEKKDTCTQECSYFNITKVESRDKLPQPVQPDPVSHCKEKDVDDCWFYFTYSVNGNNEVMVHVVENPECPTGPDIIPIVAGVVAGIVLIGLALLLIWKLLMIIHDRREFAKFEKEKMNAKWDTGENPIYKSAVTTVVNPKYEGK
- Sequence (P13612 whole entry, looked up): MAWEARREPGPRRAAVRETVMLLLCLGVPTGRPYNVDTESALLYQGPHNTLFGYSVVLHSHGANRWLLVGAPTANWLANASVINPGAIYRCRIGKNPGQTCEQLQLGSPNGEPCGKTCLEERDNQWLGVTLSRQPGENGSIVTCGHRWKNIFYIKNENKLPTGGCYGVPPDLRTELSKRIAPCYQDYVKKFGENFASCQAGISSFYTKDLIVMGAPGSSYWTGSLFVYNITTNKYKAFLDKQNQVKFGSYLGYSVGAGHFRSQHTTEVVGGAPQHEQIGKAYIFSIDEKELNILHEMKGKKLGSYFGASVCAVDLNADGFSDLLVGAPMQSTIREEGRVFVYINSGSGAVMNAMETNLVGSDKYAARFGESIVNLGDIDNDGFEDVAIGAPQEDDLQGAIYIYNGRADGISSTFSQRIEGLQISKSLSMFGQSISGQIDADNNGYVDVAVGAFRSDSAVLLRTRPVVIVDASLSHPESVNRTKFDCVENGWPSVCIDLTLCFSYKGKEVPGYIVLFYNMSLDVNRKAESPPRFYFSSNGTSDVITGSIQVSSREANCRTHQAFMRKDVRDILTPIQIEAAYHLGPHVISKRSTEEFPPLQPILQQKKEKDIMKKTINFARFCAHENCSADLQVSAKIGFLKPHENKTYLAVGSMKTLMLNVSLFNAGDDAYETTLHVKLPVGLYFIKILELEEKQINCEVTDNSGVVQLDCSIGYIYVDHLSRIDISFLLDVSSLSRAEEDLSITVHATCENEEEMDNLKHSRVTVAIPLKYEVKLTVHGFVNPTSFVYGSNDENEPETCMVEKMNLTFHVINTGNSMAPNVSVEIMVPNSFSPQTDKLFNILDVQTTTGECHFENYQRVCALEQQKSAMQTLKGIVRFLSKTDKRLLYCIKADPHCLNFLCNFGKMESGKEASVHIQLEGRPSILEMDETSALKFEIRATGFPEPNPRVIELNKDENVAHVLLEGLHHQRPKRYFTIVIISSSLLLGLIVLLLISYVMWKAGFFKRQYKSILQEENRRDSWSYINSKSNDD
- PROTOCOL: alpha4beta1 integrin LIBS antibody binding reduction – U937 cells, HUTS-21 mAb, flow cytometry, validation set, VLA-4 allosteric modulator project, pilot screen (AID 2674);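 also: antibody binding induced by the VLA-4 ligand LDV present at three times its Kd; 0% = LDV ligand with antibody and no compound and 100% = antibody without LDV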
- SETTINGS: HUTS-21 LIBS mAb binding, at 6.7 µM, hits give high values, binding induced by LDV ligand

# MOLECULE, inhibition, %
rows = [
    ("C=CCC1(O)C(=O)N2C(=C1C(=O)N1CCOCC1)c1ccccc1CC2(C)C (stereo unspecified)", -2.53),
    ("COCCOC(=O)C1=C(N)OC2=C(C(=O)CCC2)C1c1cccnc1 (stereo unspecified)", -5.64),
    ("COc1cc(C(=O)NCCCCCC(=O)O)cc(OC)c1OC", 5.61),
    ("Cn1nc(-c2ccc(Cl)cc2)nc2c(=O)n(C)c(=O)nc1-2", -12.2),
    ("CC(C)C12CN3CC(C(C)C)(CN(C1)C31C(=O)Nc3ccccc31)C2=O (stereo unspecified)", 1.59),
    ("COc1ccc(OC)c(C(=O)c2coc3ccc(O)cc23)c1", -2.82),
    ("Cc1ccc(-c2nnc(-c3ccc4c(c3)OCO4)o2)cc1", -2.82),
    ("COc1ccc(CNCCC2(C(C)C)CCOC(C)(C)C2)cc1 (stereo unspecified)", -7.72),
    ("CC1(C)CC(CNCCC(c2ccc(F)cc2)c2ccco2)CCO1 (stereo unspecified)", 3.55),
    ("Nc1nc(SCc2ccc([N+](=O)[O-])cc2)c2ncn(C3OC(CO)C(O)C3O)c2n1 (stereo unspecified)", 8.29),
    ("CC1(C)C(=O)OC(c2cccs2)C2(CCCCC2)C1=O (stereo unspecified)", -18.1),
]
